FYI, the data here is from ChEMBL document CHEMBL1133916.

system name: Disintegrin and metalloproteinase domain-containing protein 17 (Homo sapiens, UniProt P78536)
Sequence (P78536 whole entry, the tested form may be a part): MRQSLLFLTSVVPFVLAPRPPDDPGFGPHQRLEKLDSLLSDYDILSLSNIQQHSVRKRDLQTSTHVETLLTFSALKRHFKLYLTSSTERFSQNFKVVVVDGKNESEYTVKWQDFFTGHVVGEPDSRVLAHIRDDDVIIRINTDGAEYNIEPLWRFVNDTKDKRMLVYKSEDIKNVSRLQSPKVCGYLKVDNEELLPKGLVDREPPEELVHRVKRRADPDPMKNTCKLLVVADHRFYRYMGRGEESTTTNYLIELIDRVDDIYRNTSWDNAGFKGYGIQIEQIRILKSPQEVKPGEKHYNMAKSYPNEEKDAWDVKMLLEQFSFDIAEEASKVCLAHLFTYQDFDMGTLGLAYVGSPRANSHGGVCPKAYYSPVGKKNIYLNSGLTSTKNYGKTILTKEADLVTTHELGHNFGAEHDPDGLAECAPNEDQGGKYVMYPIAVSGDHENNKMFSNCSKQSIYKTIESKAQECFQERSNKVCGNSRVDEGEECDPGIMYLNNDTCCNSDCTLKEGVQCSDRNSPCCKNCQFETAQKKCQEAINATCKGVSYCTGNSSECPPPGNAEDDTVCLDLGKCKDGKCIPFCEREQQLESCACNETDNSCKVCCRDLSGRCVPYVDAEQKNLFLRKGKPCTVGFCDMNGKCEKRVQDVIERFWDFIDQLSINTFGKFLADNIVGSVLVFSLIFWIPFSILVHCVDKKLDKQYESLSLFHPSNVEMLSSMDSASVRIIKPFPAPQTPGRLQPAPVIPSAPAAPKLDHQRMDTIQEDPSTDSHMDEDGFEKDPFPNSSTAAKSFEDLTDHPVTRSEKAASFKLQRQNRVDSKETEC
quantity name: pIC50
Please note pIC50 is a logarithmic value: minus log10 of concentration in mol/L. Answer with that number alone.

# input What does the record list as pIC50 for COc1ccc(S(=O)(=O)N(Cc2cccnc2)[C@@H](C(=O)NO)C(C)C)cc1 [CGS-27023A] ?
# output 6.64

# input For the molecule shown here, Cc1cc(Br)cc(C(=O)NO)c1N(C)S(=O)(=O)c1ccc(-c2ccc(OCc3nccs3)cc2)cc1 , give the reported pIC50.
# output 7.64

# input Reported pIC50 for COc1ccc(S(=O)(=O)N(Cc2cccnc2)c2c(C)cc(C)cc2C(=O)NO)cc1 : what is it?
# output 7.15

# input Look up pIC50 for this molecule: Cc1cc(Br)cc(C(=O)NO)c1N(C)S(=O)(=O)c1ccc(-c2ccc(OCc3cccnc3)cc2)cc1
# output 7.55

# input # lookup: pIC50 of COc1ccc(S(=O)(=O)N(Cc2cccnc2)c2c(C)cccc2C(=O)NO)cc1
# output 6.64

# input Field request: pIC50 | item: COc1ccc(S(=O)(=O)N(Cc2cccnc2)c2c(C)cc(-c3ccc4ccccc4c3)cc2C(=O)NO)cc1
# output 6.71

# input Suppose we examine the molecule COc1ccc(S(=O)(=O)N(Cc2cccnc2)c2c(C)cc(N(C)C)cc2C(=O)NO)cc1 ; what pIC50 value has been reported?
# output 6.20

# input Which pIC50 value is on record for Cc1cc(Br)cc(C(=O)NO)c1N(C)S(=O)(=O)c1ccc(-c2ccc(OCc3ccsc3)cc2)cc1 ?
# output 7.25
